# Tested on: K4 kissing-loop RNA reporter;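 also: bound reporter read as fluorescence of individual clusters on recovered sequencing chips by microscopy, with normalized cluster intensities fitted with a binding model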
# Test: apparent KD of K4 kissing-loop reporter; higher = weaker reporter binding
# Conditions: Eterna round: R107; input ligand: tryptophan 2.4 mM
Task for the reader: assign each of the following sequences its reported apparent KD of K4 kissing-loop reporter.
Numbers only, in nM.

Some sequences with recorded apparent KD of K4 kissing-loop reporter:
| Sequence input | Unit info | apparent KD of K4 kissing-loop reporter |
| --- | --- | --- |
| GUUUUAUAAGAGGAUACCAGUACAAAUAAAGUACAUUAAUAGUAGAGUGAUGUUCUAAAGUACCCUUGGCAGCUUAGAUUAAGUU [ExTheophylB.E] | nM | 116 |
| AGACUACCACACUGUCAAUAGACAGUGUACUAGGAUAUGCUGAUAAGCAGAAGGAGUGAUGUUCCUUGGUAGUCAAUAAAAUAAU [FmnAX 13 U28+U67] | nM | 238 |
| GUGAAGGAGCAGCAGUGAUGUUGCUGAGACUAGGAUAUCAGGAAACUGAGAAGGAGUCAACUCCUUCACCUAGACUGCAACAUAA [KL-SSFMN-A13] | nM | 152 |
| UAUGGUCCAUCAAGAGUAGUGAUGUUAUAACGAGGACCGGUACGGCCGCCACUCGAGGCCGUAAUACUCGAUCGGAUGCUGAGUG [theeternabot_exclusion_KL_Trp_A_28] | nM | 816 |
| GCAUGACGGUAAGGAUAUAGAUAAUCCUUAUAUACGUCGAGUGAUGUUCGAUGUGCCAAGGCACAUCUAGAAGGUACUGUUAGGU [Same State FMN B GF 18] | nM | 873 |

Reported apparent KD of K4 kissing-loop reporter for CGCAAUCGAACUGAUACCAGUCAUAAUGGCUGAGAAGCACGAGUGAUGUUCGUAACGAAUGACCCUUGGCAGCAGUUCGAUUGCG [Theo B SS t8] : what is it?
839

// data source = the supplement of paper PMC9170038
